assay: Pharmacokinetic studies in mice plasma; format: in vivo; details: mouse, ip, male C57BL/6 mice, intra-peritoneal TMECG 50 mg/kg alone or with MTX 50 mg/kg, read-out: TMECG Parameters Tmax
measured_quantity: Tmax (min)
I only need the number, in min, no unit after it.

Summary for this compound, COc1cc(C(=O)O[C@@H]2Cc3c(O)cc(O)cc3O[C@@H]2c2ccc(O)c(O)c2)cc(OC)c1OC [TMECG, 3,4,5-trimethoxy-epicatechin-3-gallate] : Tmax is 5.4

====

assay: Pharmacokinetic studies in mice plasma; format: in vivo; details: mouse, ip, male C57BL/6 mice, intra-peritoneal MTX 50 mg/kg alone or with TMECG 50 mg/kg, read-out: MTX parameters t1/2 (converted)
measured_quantity: half-life
Don't forget the unit after the value.

CN(Cc1cnc2nc(N)nc(N)c2n1)c1ccc(C(=O)N[C@@H](CCC(=O)O)C(=O)O)cc1 [MTX, methotrexate] yielded half-life of 1.77 h

====

assay: Pharmacokinetic studies in mice plasma; format: in vivo; settings: mouse, ip, male C57BL/6 mice, intra-peritoneal MTX 50 mg/kg alone or with TMECG 50 mg/kg, read-out: MTX parameters Tmax
measured_quantity: Tmax (min)
// note: answer is a bare numeric in min

Entry under test: CN(Cc1cnc2nc(N)nc(N)c2n1)c1ccc(C(=O)N[C@@H](CCC(=O)O)C(=O)O)cc1 [MTX, methotrexate] . Its Tmax was 30
